# studyTarget: P2X purinoceptor 1 (Homo sapiens, UniProt P51575)
# Sequence (P51575 whole entry): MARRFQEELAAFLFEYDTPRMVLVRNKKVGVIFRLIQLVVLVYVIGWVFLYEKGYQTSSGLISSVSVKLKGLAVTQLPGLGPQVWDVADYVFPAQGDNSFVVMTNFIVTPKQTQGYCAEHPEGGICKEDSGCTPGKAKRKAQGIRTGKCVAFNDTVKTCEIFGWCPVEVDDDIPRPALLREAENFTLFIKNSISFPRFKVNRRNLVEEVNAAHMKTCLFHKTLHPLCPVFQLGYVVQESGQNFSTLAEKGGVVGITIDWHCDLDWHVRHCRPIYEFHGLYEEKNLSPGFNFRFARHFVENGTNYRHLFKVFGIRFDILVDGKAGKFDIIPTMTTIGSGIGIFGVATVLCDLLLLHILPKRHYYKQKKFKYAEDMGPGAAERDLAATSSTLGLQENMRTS
# measurementNotes: […] activity at human P2X1R expressing CHO cells assessed as reduction in intracellular Ca2+ influx pretreated with Fluo-4 for 1 hr followed by compound addition and further incubated for 30 mins in presence of ATP by multimode plate reader analysis

smilesStructure	studyTarget	EC50
Nc1ncnc2c1ncn2[C@@H]1O[C@H](COP(=O)(O)OP(=O)(O)OP(=O)(O)O)[C@@H](OC(=O)c2cccc3ccccc23)[C@H]1OC(=O)c1cccc2ccccc12	P2X purinoceptor 1 (Homo sapiens, UniProt P51575)	> 100 µM
Nc1ncnc2c1ncn2[C@@H]1O[C@H](COP(=O)(O)OP(=O)(O)OP(=O)(O)O)[C@@H](OC(=O)c2ccccc2)[C@H]1OC(=O)c1ccccc1	P2X purinoceptor 1 (Homo sapiens, UniProt P51575)	> 100 µM

###

# studyTarget: P2X purinoceptor 7 (Homo sapiens, UniProt Q99572)
# Sequence (Q99572 whole entry): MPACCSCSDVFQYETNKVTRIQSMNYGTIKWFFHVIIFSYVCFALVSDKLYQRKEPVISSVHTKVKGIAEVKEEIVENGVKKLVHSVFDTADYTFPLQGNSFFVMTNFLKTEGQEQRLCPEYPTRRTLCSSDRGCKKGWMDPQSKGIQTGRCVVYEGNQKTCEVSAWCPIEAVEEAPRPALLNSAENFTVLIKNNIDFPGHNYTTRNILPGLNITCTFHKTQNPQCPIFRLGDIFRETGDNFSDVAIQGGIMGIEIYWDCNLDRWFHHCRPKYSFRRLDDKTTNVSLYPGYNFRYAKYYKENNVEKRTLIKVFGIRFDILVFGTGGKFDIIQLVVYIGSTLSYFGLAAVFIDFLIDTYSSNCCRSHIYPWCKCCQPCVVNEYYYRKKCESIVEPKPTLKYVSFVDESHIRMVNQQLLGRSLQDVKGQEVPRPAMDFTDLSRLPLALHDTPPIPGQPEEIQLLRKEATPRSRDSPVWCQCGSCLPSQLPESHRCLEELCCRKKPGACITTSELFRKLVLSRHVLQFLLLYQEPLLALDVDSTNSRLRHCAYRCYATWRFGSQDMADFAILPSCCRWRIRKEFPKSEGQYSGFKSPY
# measurementNotes: […] activity at human P2X7R expressed in HEK293 cells assessed as reduction in YO-PRO-1 iodide dye uptake preincubated for 30 mins followed by YO-PRO-1 iodide addition and measured after 2 hrs by fluorescence based multimode plate reader analysis
# Assay type: cell-based
pEC50: −log10 of the molar value.
testReadout: pEC50

smilesStructure	qualifierSign	resultNumber
Nc1ncnc2c1ncn2[C@@H]1O[C@H](COP(=O)(O)OP(=O)(O)OP(=O)(O)O)[C@@H](OC(=O)c2cccc3ccccc23)[C@H]1OC(=O)c1cccc2ccccc12	=	4.65
Nc1ncnc2c1ncn2[C@@H]1O[C@H](COP(=O)(O)OP(=O)(O)OP(=O)(O)O)[C@@H](OC(=O)c2ccccc2)[C@H]1OC(=O)c1ccccc1	<	4.00

###

# studyTarget: P2X purinoceptor 4 (Homo sapiens, UniProt Q99571)
# Sequence (Q99571 whole entry): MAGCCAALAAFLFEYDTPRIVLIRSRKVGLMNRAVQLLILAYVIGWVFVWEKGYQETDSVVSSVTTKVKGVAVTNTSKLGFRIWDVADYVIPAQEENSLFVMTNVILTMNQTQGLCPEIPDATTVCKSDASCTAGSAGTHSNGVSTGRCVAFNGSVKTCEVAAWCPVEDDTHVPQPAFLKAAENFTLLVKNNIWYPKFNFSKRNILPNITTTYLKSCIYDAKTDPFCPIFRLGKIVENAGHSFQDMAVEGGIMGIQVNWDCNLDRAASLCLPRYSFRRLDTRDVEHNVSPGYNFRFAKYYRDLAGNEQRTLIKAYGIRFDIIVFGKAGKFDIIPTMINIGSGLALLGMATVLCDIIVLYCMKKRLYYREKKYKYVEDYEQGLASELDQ
# measurementNotes: […] activity at human P2X4R expressing HEK293 cells assessed as reduction in intracellular Ca2+ influx pretreated with Fluo-4 for 1 hr followed by compound addition and further incubated for 30 mins in presence of ATP by multimode plate reader analysis
Entries and their EC50 values follow.

smilesStructure	scaleUnit	qualifierSign	EC50
Nc1ncnc2c1ncn2[C@@H]1O[C@H](COP(=O)(O)OP(=O)(O)OP(=O)(O)O)[C@@H](OC(=O)c2ccccc2)[C@H]1OC(=O)c1ccccc1	µM	=	1.48
Nc1ncnc2c1ncn2[C@@H]1O[C@H](COP(=O)(O)OP(=O)(O)OP(=O)(O)O)[C@@H](OC(=O)c2cccc3ccccc23)[C@H]1OC(=O)c1cccc2ccccc12	µM	>	100
